Entries and their pIC50
Test system: A2780
Experiment: In vitro cytotoxic activity against human tumor cell line A2780 after incubation for 96 hours
Type: functional, cell-based
Conditions: A2780, 96 h
Units for pIC50: none; it is -log10 of a concentration expressed in mol/L.

Here's what some known entries look like.
O=C(O[C@@H]1C=C(Br)C(=O)[C@H]1O)c1c(O)ccc2ccccc12: 5.00
COc1cc(C)c2ccc(O)c(C(=O)O[C@@H]3C(=O)C=C[C@H]3O)c2c1: 5.03
O=C(O[C@@H]1C(=O)C=C[C@H]1O)c1c(O)ccc2ccccc12: 5.43
O=C(O[C@@H]1C=CC(=O)[C@H]1O)c1c(O)ccc2ccccc12: 5.57

query: // lookup pIC50 for `COc1cc(C)c2ccc(O)c(C(=O)O[C@@H]3C=CC(=O)[C@H]3O)c2c1`
result: 5.60

query: Try this compound next: `O=C(O[C@@H]1C(=O)C(Br)=C[C@H]1O)c1c(O)ccc2ccccc12`
result: 5.03
